target: HLA-A*69:01; experiment: IEDB peptide-MHC binding, purified MHC/direct/fluorescence; filed as Kd, often an IC50 or EC50 that approximates it; bounds were set here for any values at or beyond the usual limits of such assays; conditions: source organism: Sudan ebolavirus - Maleo (1979)
Readout name: Kd

[
  {
    "Seq text": "MHYKLDEVL",
    "Experimental target": "HLA-A*69:01",
    "Readout name": "Kd",
    "Val": "≥ 20 µM"
  }
]

###

molecular target: HLA-C*08:02; test: IEDB peptide-MHC binding, purified MHC/direct/fluorescence; filed as Kd, often an IC50 or EC50 that approximates it; bounds were set here for any values at or beyond the usual limits of such assays; settings: source organism: Mus musculus
pKd: −log10 of the molar value.

[
  {
    "Seq text": "LVDENQSWY",
    "Experimental target": "HLA-C*08:02",
    "pKd": "≤ 4.70"
  }
]
